Item-by-item account of IC50
# assay-system: Interstitial collagenase (Homo sapiens, UniProt P03956)
# Sequence (P03956 whole entry): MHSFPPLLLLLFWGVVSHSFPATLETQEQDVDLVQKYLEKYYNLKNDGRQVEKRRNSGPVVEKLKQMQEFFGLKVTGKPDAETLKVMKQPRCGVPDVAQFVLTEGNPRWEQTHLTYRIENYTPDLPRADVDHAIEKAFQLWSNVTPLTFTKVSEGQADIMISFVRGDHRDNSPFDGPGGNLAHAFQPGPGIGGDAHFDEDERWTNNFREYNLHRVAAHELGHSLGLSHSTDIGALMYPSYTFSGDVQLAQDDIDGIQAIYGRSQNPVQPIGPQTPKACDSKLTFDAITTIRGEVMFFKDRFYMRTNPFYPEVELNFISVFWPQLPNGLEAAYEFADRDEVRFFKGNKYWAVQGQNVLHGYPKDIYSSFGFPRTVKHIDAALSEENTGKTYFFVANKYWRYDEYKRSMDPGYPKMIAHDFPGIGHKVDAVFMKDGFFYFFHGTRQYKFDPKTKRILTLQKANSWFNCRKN

Below, 3 compounds whose answers are already recorded.
CNC(=O)[C@H](Cc1ccccc1)NC(=O)[C@H](Cc1ccccc1S)CC(C)C
0.03 µM
CNC(=O)[C@H](Cc1ccc(OC)cc1)NC(=O)[C@H](Cc1ccccc1S)CC(C)C
0.055 µM
CC(C)CC(Cc1ccccc1S)C(=O)NC1CCCCCCCCCCNC1=O (centres undefined)
> 100 µM

Prompt line: Please give measured IC50 of the following entry: "CNC(=O)[C@H](Cc1ccccc1)NC(=O)[C@@H](Cc1ccccc1S)CC(C)C"
Response line: 1.1 µM
